- Test system: G401
- Method: relative viability vs DMSO control (72 h) (fraction); higher = more viable cells
- Stated Conditions: 0.04115 µM
# Lookup of reported relative viability keyed by entry
Measure Name: relative viability

{"columns": ["Compound", "Observed Value"],
 "data": [
  ["C1=N/C2=N/c3ccc(OCCN4CCCC4)c(c3)COC/C=C/COCc3cccc(c3)C(=C1)N2 [Pacritinib]", 1],
  ["C[C@@H](Oc1cc(-c2cnn(C3CCNCC3)c2)cnc1N)c1c(Cl)ccc(F)c1Cl [Crizotinib]", 1.01],
  ["CCCCCCCCCCCCCCCCCCOP(=O)([O-])OC1CC[N+](C)(C)CC1 [Perifosine]", 1.06],
  ["COc1cc2c(Oc3ccc4[nH]c(C)cc4c3F)ccnc2cc1OCC1(N)CC1 [Anlotinib]", 0.982]
]}

* * *

- Test system: G401
- Method: relative viability vs DMSO control (72 h) (fraction); higher = more viable cells
- Stated Conditions: 0.00017 µM
relative viability overview

{"columns": ["Molecule", "relative viability"],
 "data": [
  ["CC[C@@H]1C(=O)N(C)c2cnc(Nc3ccc(C(=O)N[C@H]4CC[C@H](N5CCN(CC6CC6)CC5)CC4)cc3OC)nc2N1C(C)C", 1.01],
  ["COc1cc2c(Oc3ccc4[nH]c(C)cc4c3F)ccnc2cc1OCC1(N)CC1", 0.964],
  ["Cc1cc(Nc2ncc(Cl)c(Nc3ccccc3S(=O)(=O)C(C)C)n2)c(OC(C)C)cc1C1CCNCC1", 0.953],
  ["Cc1c(F)cc(C(=O)NC2CC2)cc1-c1ccc(C(=O)NCC(C)(C)C)cn1", 1.06]
]}

* * *

- Tested on: VA-ES-BJ
- Method: relative viability vs DMSO control (72 h) (fraction); higher = more viable cells
- Stated Conditions: 10 µM
Measure Name: relative viability

{"columns": ["Molecule", "System Under Test", "Measure Name", "Observed Value"],
 "data": [
  ["CCN(c1cc(-c2ccc(CN3CCOCC3)cc2)cc(C(=O)NCc2c(C)cc(C)[nH]c2=O)c1C)C1CCOCC1", "VA-ES-BJ", "relative viability", 1.07],
  ["Cc1cn(-c2cc(NC(=O)c3ccc(C)c(Nc4nccc(-c5cnccn5)n4)c3)cc(C(F)(F)F)c2)cn1", "VA-ES-BJ", "relative viability", 1.21],
  ["Cc1c(F)cc(C(=O)NC2CC2)cc1-c1ccc(C(=O)NCC(C)(C)C)cn1", "VA-ES-BJ", "relative viability", 1],
  ["CO[C@H]1C[C@@H]2CC[C@@H](C)[C@@](O)(O2)C(=O)C(=O)N2CCCC[C@H]2C(=O)O[C@H]([C@H](C)C[C@@H]2CC[C@@H](O)[C@H](OC)C2)CC(=O)[C@H](C)/C=C(\\C)[C@@H](O)[C@@H](OC)C(=O)[C@H](C)C[C@H](C)/C=C/C=C/C=C/1C", "VA-ES-BJ", "relative viability", 0.43]
]}

* * *

The following molecules are listed with their measured relative viability values.
- Tested on: SW1353
- Method: relative viability vs DMSO control (72 h) (fraction); higher = more viable cells
- Stated Conditions: 0.00051 µM
Measure Name: relative viability

{"columns": ["Molecule", "Measure Name", "Observed Value"],
 "data": [
  ["Cc1nc(Nc2ncc(C(=O)Nc3c(C)cccc3Cl)s2)cc(N2CCN(CCO)CC2)n1 [Dasatinib]", "relative viability", 0.982],
  ["Cc1ccc(NC(=O)c2ccc(CN3CCN(C)CC3)cc2)cc1Nc1nccc(-c2cccnc2)n1 [Imatinib]", "relative viability", 0.988],
  ["CCN(c1cc(-c2ccc(CN3CCOCC3)cc2)cc(C(=O)NCc2c(C)cc(C)[nH]c2=O)c1C)C1CCOCC1 [Tazemetostat]", "relative viability", 1.04]
]}

* * *

- Tested on: KHOS-NP
- Method: relative viability vs DMSO control (72 h) (fraction); higher = more viable cells
- Stated Conditions: 3.333 µM
Measure Name: relative viability

{"columns": ["Compound", "Measure Name", "Observed Value"],
 "data": [
  ["C=CC(=O)Nc1cc(Nc2nccc(-c3cn(C)c4ccccc34)n2)c(OC)cc1N(C)CCN(C)C [Osimertinib]", "relative viability", 1.02],
  ["COc1cc(Nc2c(C#N)cnc3cc(OCCCN4CCN(C)CC4)c(OC)cc23)c(Cl)cc1Cl [Bosutinib]", "relative viability", 0.482],
  ["CO[C@@H]1[C@H](N(C)C(=O)c2ccccc2)C[C@H]2O[C@]1(C)n1c3ccccc3c3c4c(c5c6ccccc6n2c5c31)C(=O)NC4 [Midostaurin]", "relative viability", 0.257],
  ["C[C@@H]1COC(Nc2ccc3ncnc(Nc4ccc(OCc5nccs5)c(Cl)c4)c3c2)=N1 [Varlitinib]", "relative viability", 1.04],
  ["C=CC(=O)Nc1cccc(Nc2nc(Nc3ccc(N4CCN(C(C)=O)CC4)cc3OC)ncc2C(F)(F)F)c1 [Rociletinib]", "relative viability", 1.03],
  ["CNC(=O)c1cc(Oc2ccc(NC(=O)Nc3ccc(Cl)c(C(F)(F)F)c3)cc2)ccn1 [Sorafenib]", "relative viability", 0.534],
  ["COc1cc2ncnc(Nc3cccc(Cl)c3F)c2cc1OC(=O)N1CCN(C)C[C@H]1C [AZD-3759]", "relative viability", 0.998]
]}

* * *

- Tested on: G401
- Method: relative viability vs DMSO control (72 h) (fraction); higher = more viable cells
- Stated Conditions: 0.04115 µM
relative viability values by entry

{"columns": ["Molecule", "System Under Test", "relative viability"],
 "data": [
  ["N#Cc1ccnc(N2C(=O)CC[C@H]2C(=O)N(c2cncc(F)c2)[C@H](C(=O)NC2CC(F)(F)C2)c2ccccc2Cl)c1 [Ivosidenib]", "G401", 0.934],
  ["COc1cc2ncnc(Nc3cccc(Cl)c3F)c2cc1OC(=O)N1CCN(C)C[C@H]1C [AZD-3759]", "G401", 1.02],
  ["COc1cc(OC)cc(N(CCNC(C)C)c2ccc3ncc(-c4cnn(C)c4)nc3c2)c1 [Erdafitinib]", "G401", 0.591],
  ["COc1cc2nccc(Oc3ccc(NC(=O)NC4CC4)c(Cl)c3)c2cc1C(N)=O [Lenvatinib]", "G401", 0.974],
  ["Cc1ccc(C(=O)OCc2ccc([C@@H](CN)C(=O)Nc3ccc4cnccc4c3)cc2)c(C)c1 [Netarsudil]", "G401", 0.957],
  ["Cc1ccc(NC(=O)c2ccc(CN3CCN(C)CC3)cc2)cc1Nc1nccc(-c2cccnc2)n1 [Imatinib]", "G401", 0.945],
  ["Cc1cccc(-c2[nH]c(CNc3ccccc3F)nc2-c2ccc3ncnn3c2)n1 [Vactosertib]", "G401", 0.937],
  ["Cc1c(F)cc(C(=O)NC2CC2)cc1-c1ccc(C(=O)NCC(C)(C)C)cn1 [Losmapimod]", "G401", 1.01]
]}

* * *

Reported relative viability values for a set of molecules
- System: SYO-1
- Method: relative viability vs DMSO control (72 h) (fraction); higher = more viable cells
- Stated Conditions: 0.3704 µM
Measure Name: relative viability

{"columns": ["Molecule", "System Under Test", "Observed Value"],
 "data": [
  ["CO[C@@H]1[C@H](N(C)C(=O)c2ccccc2)C[C@H]2O[C@]1(C)n1c3ccccc3c3c4c(c5c6ccccc6n2c5c31)C(=O)NC4 [Midostaurin]", "SYO-1", 0.294],
  ["Cc1nc(Nc2ncc(C(=O)Nc3c(C)cccc3Cl)s2)cc(N2CCN(CCO)CC2)n1 [Dasatinib]", "SYO-1", 0.573],
  ["CNC(=O)c1cc(Oc2ccc(NC(=O)Nc3ccc(Cl)c(C(F)(F)F)c3)cc2)ccn1 [Sorafenib]", "SYO-1", 0.773],
  ["CN(C)C[C@@H]1CCn2cc(c3ccccc32)C2=C(C(=O)NC2=O)c2cn(c3ccccc23)CCO1 [Ruboxistaurin]", "SYO-1", 0.849],
  ["C[C@H]1Oc2cc(cnc2N)-c2c(nn(C)c2C#N)CN(C)C(=O)c2ccc(F)cc21 [Lorlatinib]", "SYO-1", 0.844],
  ["CCCCCCCCCCCCCCCCCCOP(=O)([O-])OC1CC[N+](C)(C)CC1 [Perifosine]", "SYO-1", 0.946],
  ["Cc1ccc(NC(=O)c2ccc(CN3CCN(C)CC3)cc2)cc1Nc1nccc(-c2cccnc2)n1 [Imatinib]", "SYO-1", 0.744],
  ["COc1cc(OC)cc(N(CCNC(C)C)c2ccc3ncc(-c4cnn(C)c4)nc3c2)c1 [Erdafitinib]", "SYO-1", 0.396],
  ["Cc1c(F)cc(C(=O)NC2CC2)cc1-c1ccc(C(=O)NCC(C)(C)C)cn1 [Losmapimod]", "SYO-1", 0.865]
]}

* * *

Listing of recorded standardised AUC by entry.
- System: KHOS-NP
- Method: standardised AUC of viability dose-response curve (72 h) (fraction (0-1)); higher = less growth inhibition (more resistant)
Measure Name: standardised AUC

{"columns": ["Molecule", "Observed Value"],
 "data": [
  ["C=CC(=O)Nc1cc(Nc2nccc(-c3cn(C)c4ccccc34)n2)c(OC)cc1N(C)CCN(C)C", 0.974],
  ["CCCCCCCCCCCCCCCCCCOP(=O)([O-])OC1CC[N+](C)(C)CC1", 0.966],
  ["Cc1nc(Nc2ncc(C(=O)Nc3c(C)cccc3Cl)s2)cc(N2CCN(CCO)CC2)n1", 0.725],
  ["CN1CCN(CCOc2cc(OC3CCOCC3)c3c(Nc4c(Cl)ccc5c4OCO5)ncnc3c2)CC1", 0.951],
  ["Cc1cccc(-c2[nH]c(CNc3ccccc3F)nc2-c2ccc3ncnn3c2)n1", 0.989],
  ["N#Cc1ccnc(N2C(=O)CC[C@H]2C(=O)N(c2cncc(F)c2)[C@H](C(=O)NC2CC(F)(F)C2)c2ccccc2Cl)c1", 0.993],
  ["C=CC(=O)Nc1cccc(Nc2nc(Nc3ccc(N4CCN(C(C)=O)CC4)cc3OC)ncc2C(F)(F)F)c1", 0.975],
  ["CO[C@@H]1[C@H](N(C)C(=O)c2ccccc2)C[C@H]2O[C@]1(C)n1c3ccccc3c3c4c(c5c6ccccc6n2c5c31)C(=O)NC4", 0.812],
  ["C[C@@H](Oc1cc(-c2cnn(C3CCNCC3)c2)cnc1N)c1c(Cl)ccc(F)c1Cl", 0.944],
  ["COc1cc(Nc2c(C#N)cnc3cc(OCCCN4CCN(C)CC4)c(OC)cc23)c(Cl)cc1Cl", 0.87],
  ["NC(=O)c1cnc2[nH]ccc2c1N[C@@H]1[C@@H]2CC3C[C@H]1C[C@@](O)(C3)C2", 0.982],
  ["COc1cc2ncnc(Nc3ccc(F)c(Cl)c3)c2cc1NC(=O)/C=C/CN1CCCCC1", 0.939],
  ["COc1cc2nccc(Oc3ccc(NC(=O)NC4CC4)c(Cl)c3)c2cc1C(N)=O", 1],
  ["CN(C)C[C@@H]1CCn2cc(c3ccccc32)C2=C(C(=O)NC2=O)c2cn(c3ccccc23)CCO1", 0.99]
]}
